Just for reference, ChEMBL document CHEMBL1201862 is where these values come from.

# STUDY TARGET: Ataxin-2 (Homo sapiens)
# ASSAY PROCEDURE: qHTS for Inhibitors of ATXN expression.
# Assay type: functional
Hit rate of the full screen: of about 400,000 compounds, about 2,100 (0.53%) were called active. Another 14% or so got no clear call; they are omitted. The sample as a whole holds a higher share of actives than the screen did.

COMPOUND	Potency
O=C(Oc1ccc2c(-c3ccccc3)cc(=O)oc2c1)c1cccs1	inactive
CC1C(=O)N2CCCc3cc(NC(=O)CC(C)(C)C)cc1c32 (stereo not given)	inactive
COc1ccc(C2CC(c3cccc(Cl)c3)=NN2c2ccc(S(N)(=O)=O)cc2)cc1 (stereo not given)	inactive
O=C1C=C(N(CCO)Cc2ccccc2)c2ccccc2C1=O	29.9 µM (active)
COc1cc(NS(=O)(=O)c2ccc(N/C=C\C(=O)c3ccc(F)cc3)cc2)nc(OC)n1	inactive

---

# STUDY TARGET: Ataxin-2 (Homo sapiens)
# ASSAY PROCEDURE: qHTS for Inhibitors of ATXN expression.
# Type: functional
Out of some 400,000 compounds screened, about 2,100 (0.53%) were called active. Roughly 14% stayed inconclusive and do not appear here. The rule behind the calls is not given here. The entries come from a sample that favours actives as a whole.
Outcomes: active, inactive

CHEMICAL STRING	STUDY TARGET	CLASS
CCC(=O)Nc1ccc(NC(=O)CSc2nnnn2Cc2ccccc2)cc1C	Ataxin-2 (Homo sapiens)	inactive
C/N=c1\scc(-c2ccc(OC)cc2)n1/N=C(\C)c1cccnc1	Ataxin-2 (Homo sapiens)	inactive
COc1cc(O)c(C(=O)/C=C/c2ccccc2)c(OC)c1	Ataxin-2 (Homo sapiens)	active
O=C(C=Cc1cccnc1)c1ccccc1	Ataxin-2 (Homo sapiens)	active
O=C(/C=C/c1cccnc1)c1cccc(O)c1	Ataxin-2 (Homo sapiens)	active
NNC(=O)c1sccc1OCc1ccc(Cl)cc1Cl	Ataxin-2 (Homo sapiens)	inactive
Cc1cc(O)c(C(=O)/C=C/c2ccccc2)c(=O)o1	Ataxin-2 (Homo sapiens)	inactive
Cc1nc2c(OCc3ccc(Cl)cc3Cl)cccn2c1N(C)Cc1cccs1	Ataxin-2 (Homo sapiens)	active
CCn1c(SCC(=O)Nc2cccc(Cl)c2)nnc1-c1nonc1NC(C)=O	Ataxin-2 (Homo sapiens)	inactive
CCOC(=O)c1c(NC(=O)CCl)sc(CN(C)C)c1-c1ccccc1	Ataxin-2 (Homo sapiens)	active
COc1cc(/C=C(\C#N)c2ccccn2)ccc1OCc1ccccc1	Ataxin-2 (Homo sapiens)	inactive
CCc1nc2c(OCc3ccc(Cl)cc3Cl)cccn2c1N(C)C(C)=O	Ataxin-2 (Homo sapiens)	active

---

# STUDY TARGET: Ataxin-2 (Homo sapiens) (UniProt Q99700)
# Sequence (Q99700 whole entry): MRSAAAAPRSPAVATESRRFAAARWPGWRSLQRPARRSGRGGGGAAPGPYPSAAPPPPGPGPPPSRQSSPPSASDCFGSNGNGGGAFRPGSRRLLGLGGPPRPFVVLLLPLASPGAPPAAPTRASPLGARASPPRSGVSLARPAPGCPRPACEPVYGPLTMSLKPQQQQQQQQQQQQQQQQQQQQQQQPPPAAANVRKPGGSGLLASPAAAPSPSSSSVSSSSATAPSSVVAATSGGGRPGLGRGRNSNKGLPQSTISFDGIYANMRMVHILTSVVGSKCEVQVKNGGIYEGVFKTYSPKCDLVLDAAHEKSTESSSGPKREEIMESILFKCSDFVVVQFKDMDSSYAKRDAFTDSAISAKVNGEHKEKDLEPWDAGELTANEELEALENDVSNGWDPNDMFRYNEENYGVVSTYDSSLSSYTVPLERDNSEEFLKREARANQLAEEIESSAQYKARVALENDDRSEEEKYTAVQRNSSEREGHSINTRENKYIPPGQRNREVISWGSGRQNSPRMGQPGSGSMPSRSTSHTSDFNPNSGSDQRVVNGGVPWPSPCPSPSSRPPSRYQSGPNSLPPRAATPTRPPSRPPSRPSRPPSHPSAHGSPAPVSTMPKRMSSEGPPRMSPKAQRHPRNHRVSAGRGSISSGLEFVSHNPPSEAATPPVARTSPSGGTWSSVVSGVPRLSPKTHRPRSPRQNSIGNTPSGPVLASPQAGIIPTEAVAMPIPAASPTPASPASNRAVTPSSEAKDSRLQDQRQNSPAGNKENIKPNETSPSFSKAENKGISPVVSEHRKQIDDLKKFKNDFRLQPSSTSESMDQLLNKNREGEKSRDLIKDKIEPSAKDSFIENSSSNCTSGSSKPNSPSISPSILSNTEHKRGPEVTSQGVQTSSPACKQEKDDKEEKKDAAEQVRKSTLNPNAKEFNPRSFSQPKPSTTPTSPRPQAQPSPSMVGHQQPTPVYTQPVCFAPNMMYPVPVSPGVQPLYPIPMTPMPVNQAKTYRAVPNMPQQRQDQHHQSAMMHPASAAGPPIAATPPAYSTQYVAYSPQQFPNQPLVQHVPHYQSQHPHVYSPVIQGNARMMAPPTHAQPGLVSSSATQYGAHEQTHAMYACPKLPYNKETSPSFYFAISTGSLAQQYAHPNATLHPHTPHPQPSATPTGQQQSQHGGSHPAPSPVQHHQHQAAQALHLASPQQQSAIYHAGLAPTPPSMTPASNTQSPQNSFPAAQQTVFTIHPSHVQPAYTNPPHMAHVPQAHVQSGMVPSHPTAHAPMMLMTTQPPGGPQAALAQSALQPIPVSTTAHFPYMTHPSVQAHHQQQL
# ASSAY PROCEDURE: qHTS for Inhibitors of ATXN expression.
# Type: functional
Among all 400,000 compounds or so, about 2,100 (0.53%) were called active. Another 14% or so got no clear call; they are omitted. The rule behind the calls is not given here. For the sample, actives were picked, then their nearest neighbours and some compounds at random.
Outcome codes: class 1 (active), class 0 (inactive)

COMPOUND	CLASS
FC(F)Sc1ccc(NC(=S)N2CCN(c3ccccn3)CC2)cc1	class 0
CSc1nc(N2CCOCC2)nc2ccc(C)cc12	class 0
OC(COC(c1ccc(Cl)cc1)c1ccc(Cl)cc1)CN1CCc2ccccc2C1 (stereo unspecified)	class 1
CN(C)c1ccc(C(C[N+](=O)[O-])c2c(N)n(C)c(=O)n(C)c2=O)c(F)c1C#N (stereo unspecified)	class 1
O=C(Cc1ccc(Cl)cc1)N1CCc2ccccc2C1	class 0
COc1ccccc1C(C[N+](=O)[O-])c1c(N)n(C)c(=O)n(C)c1=O (stereo unspecified)	class 1
COCCCn1/c(=N/C(C)=O)c(C#N)cc2c(=O)n3cccc(C)c3nc21	class 0
Cc1ccc(S(=O)(=O)N(C)c2ccc(OC(=O)c3cccs3)cc2)cc1C	class 0
CC(C)N1CCN(CC2COc3ccccc3O2)CC1 (stereo unspecified)	class 0
COc1cc(/C=C/c2sc3ccccc3[n+]2CCCS(=O)(=O)[O-])ccc1O	class 1
Cn1c(N)c(C(=O)CN2CCc3ccccc3C2)c(=O)n(C)c1=O	class 0
